# Test: chemical genetic growth profiling, strain panel (AID 1159580);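 further: tested at 20 µM; growth read once vehicle control cultures reached saturation at 30 °C; 1 = growth at the plate median or of vehicle wells; lower values mean less growth of the strain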
# Assay Context: S. cerevisiae deletion strains, growth OD, locus YEL061C, strain CIN8, hits give low values
Among all 5,500 compounds or so, about 2,000 (36%) were called active. Roughly 18% stayed inconclusive and do not appear here. The list shows a part of the results.
For each entry below, report its normalized growth value.
Please give only the number in your answer, with no unit.

Bench note: what normalized growth did CC(C)(Oc1ccc(Cl)cc1)C(=O)O show? 1

So what does the record say about normalized growth for CC(=O)OC1CC2C(C)(C)CCCC2(C)C2CCC3(C)C(c4ccoc4)OC(=O)C4OC43C12C (centres undefined) ? 1

Field request: normalized growth | item: CC(=O)O.CC(=O)O.[Cd] 0.342

Fill in: normalized growth of COc1cc([C@@H]2c3cc4c(cc3C(O[C@@H]3O[C@@H]5CO[C@@H](c6cccs6)OC5[C@H](O)[C@H]3O)C3COC(=O)[C@@H]32)OCO4)cc(OC)c1O (some centres undefined) is ___ 1

Query: normalized growth; subject: CC(=O)[C@H]1CCC2C3CC=C4C[C@@H](O)CC[C@]4(C)C3CC[C@@]21C (some centres undefined) 1.01

Given the molecule Cc1cc2cc3c(C)cc(=O)oc3c(C)c2o1 , what is its reported normalized growth? 0.98

# normalized growth lookup, item O=C(/C=C/c1ccccc1)c1ccc(O)cc1 0.506

Given the entry CC(=O)O[C@H]1C[C@@]2(C)[C@H](c3ccoc3)OC(=O)[C@H]3O[C@]32[C@@]2(C)C1[C@]1(C)C(C[C@H]2OC(C)=O)C(C)(C)[C@H](OC(C)=O)C[C@@H]1OC(C)=O (some centres undefined) , report its measured normalized growth. 0.997

I'd like to know its normalized growth. The molecule in question is Cn1c(=O)c2[nH]c(C3CCCC3)nc2n(C)c1=O 1.01

----------
Give measured normalized growth for each item. Keep answers brief.
# Test: chemical genetic growth profiling, strain panel (AID 1159580);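 further: tested at 20 µM; growth read once vehicle control cultures reached saturation at 30 °C; 1 = growth at the plate median or of vehicle wells; lower values mean less growth of the strain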
# Assay Context: S. cerevisiae deletion strains, growth OD, locus YPL055C, strain LGE1, hits give low values
About 2,000 (36%) of roughly 5,500 compounds were called active. Roughly 18% stayed inconclusive and do not appear here. The list shows a part of the results.
Keep the answer to the number alone.

I am curious: what normalized growth value has been reported for CCC1C2CC3C4N(C)c5ccccc5C45CC(C2C5OC(C)=O)N3C1OC(C)=O (centres undefined) ? 1.04

Endpoint output: normalized growth of CCCCCCCCCCCCCCCC[n+]1ccccc1 . Value? 0.0709

Return reported normalized growth; argument: CC(=O)C(C)=O 1.07

# lookup: normalized growth of Cc1ccc(COc2ccc(C)nc2[N+](=O)[O-])cc1 0.809

Name the recorded normalized growth for OC1C(O)C(O)C(O)C(O)C1O (centres undefined) . 0.966

Record request: normalized growth value, item CC(C)C[C@H](NC(=O)C1OC1C(=O)O)C(=O)NCCCCN=C(N)N (some centres undefined) 1.02

Would you mind telling me what normalized growth value was observed for C#CCOS(=O)OC1CCCCC1Oc1ccc(C(C)(C)C)cc1 (centres undefined) ? 1.05

Please look up its normalized growth: CC(=O)O.CC(=O)O.[Cd] 0.169

Dear colleague, I am looking for the recorded normalized growth of the following molecule: CCCn1c(=O)[nH]c(=O)c2[nH]cnc21 1.02

Would you mind telling me what normalized growth value was observed for COc1cc(NC(=O)NS(=O)(=O)c2ccc(C)cc2)cc(C(F)(F)F)c1 ? 0.966

Recorded normalized growth for O=C1CCc2cc(OCCCCc3nnnn3C3CCCCC3)ccc2N1 , please? 1.06

Looking for the measured normalized growth of CC1=NCCc2c1[nH]c1cc(O)ccc21 , can you help? 0.956

Which normalized growth value belongs to O=c1[nH]c2cc([N+](=O)[O-])c([N+](=O)[O-])cc2[nH]c1=O ? 0.988

What measured normalized growth goes with CN1CCc2ccccc2Cc2[nH]c3ccccc3c2CC1 ? 1.01
